# System: wild-type ZIKV (Ugandan MR766 strain) in Vero cells
# Protocol Details: ZIKV cytopathic effect (CPE) inhibition qHTS assay, CellTiter-Glo readout
# Type: cell-based, Zika virus
Grouping rule (Efficacy): low group: < -70; middle group: ≥ -70 and < -40; high group: ≥ -40

Molecule	Group Label
CC(C)(O)C(O)C(=O)OCc1ccc(O[C@@H]2O[C@H](CO)[C@@H](O)[C@H](O)[C@H]2O)cc1 (stereo partly drawn)	middle group

Lab note: sort CCOC(=O)C1=C(N)Oc2ccc(Br)cc2C1C(C#N)C(=O)OCC (stereo not drawn) [NCGC00025207-15] into the matching Efficacy band.
high group

// return the class label for C=C1C(=O)OC2/C=C(\C)C3=CC(=O)C(C)(CC(OC(=O)/C(C)=C/COC(C)=O)C12)O3 (stereo not drawn)
low group

# classify by Efficacy band: COc1cc2c(NC3CCN(C(C)C)CC3)nc(C3CCCCC3)nc2cc1OCCCN1CCCC1
high group

Band for the recorded Efficacy of O=C1[C@H](CC[C@H](O)c2ccc(F)cc2)[C@@H](c2ccc(O)cc2)N1c1ccc(F)cc1 ?
high group

Bin this entry: Cc1cc(C(=O)Nc2cc(Nc3ccc4c(/C=C/c5ccccn5)[nH]nc4c3)ccc2F)n(C)n1
middle group

Band assignment needed for COc1cc(O)c2c(c1)/C=C/C[C@H](O)[C@H](O)C(=O)/C=C\C[C@H](C)OC2=O please.
low group

# classify by Efficacy band: C[C@H]1C(=O)N2c3ccccc3[C@@]3(O)C[C@@H]4C(=O)N[C@](C)(c5nc6ccccc6c(=O)n54)N1[C@@H]23
low group

Could you tell me which band C=C1C(=O)CC2OC2(C)CC2OC(=O)C(=C)C2C(O)C1OC(=O)/C(C)=C\C (stereo not drawn) belongs to?
middle group

Source: paper PMC8765781
